For each of the compounds below, state its IC50.
# TESTED_SYSTEM: VEGFR-2 (Homo sapiens, UniProt P35968)
# Construct: purchased Cell Signaling Technology, Inc
# Sequence (P35968 20-1356): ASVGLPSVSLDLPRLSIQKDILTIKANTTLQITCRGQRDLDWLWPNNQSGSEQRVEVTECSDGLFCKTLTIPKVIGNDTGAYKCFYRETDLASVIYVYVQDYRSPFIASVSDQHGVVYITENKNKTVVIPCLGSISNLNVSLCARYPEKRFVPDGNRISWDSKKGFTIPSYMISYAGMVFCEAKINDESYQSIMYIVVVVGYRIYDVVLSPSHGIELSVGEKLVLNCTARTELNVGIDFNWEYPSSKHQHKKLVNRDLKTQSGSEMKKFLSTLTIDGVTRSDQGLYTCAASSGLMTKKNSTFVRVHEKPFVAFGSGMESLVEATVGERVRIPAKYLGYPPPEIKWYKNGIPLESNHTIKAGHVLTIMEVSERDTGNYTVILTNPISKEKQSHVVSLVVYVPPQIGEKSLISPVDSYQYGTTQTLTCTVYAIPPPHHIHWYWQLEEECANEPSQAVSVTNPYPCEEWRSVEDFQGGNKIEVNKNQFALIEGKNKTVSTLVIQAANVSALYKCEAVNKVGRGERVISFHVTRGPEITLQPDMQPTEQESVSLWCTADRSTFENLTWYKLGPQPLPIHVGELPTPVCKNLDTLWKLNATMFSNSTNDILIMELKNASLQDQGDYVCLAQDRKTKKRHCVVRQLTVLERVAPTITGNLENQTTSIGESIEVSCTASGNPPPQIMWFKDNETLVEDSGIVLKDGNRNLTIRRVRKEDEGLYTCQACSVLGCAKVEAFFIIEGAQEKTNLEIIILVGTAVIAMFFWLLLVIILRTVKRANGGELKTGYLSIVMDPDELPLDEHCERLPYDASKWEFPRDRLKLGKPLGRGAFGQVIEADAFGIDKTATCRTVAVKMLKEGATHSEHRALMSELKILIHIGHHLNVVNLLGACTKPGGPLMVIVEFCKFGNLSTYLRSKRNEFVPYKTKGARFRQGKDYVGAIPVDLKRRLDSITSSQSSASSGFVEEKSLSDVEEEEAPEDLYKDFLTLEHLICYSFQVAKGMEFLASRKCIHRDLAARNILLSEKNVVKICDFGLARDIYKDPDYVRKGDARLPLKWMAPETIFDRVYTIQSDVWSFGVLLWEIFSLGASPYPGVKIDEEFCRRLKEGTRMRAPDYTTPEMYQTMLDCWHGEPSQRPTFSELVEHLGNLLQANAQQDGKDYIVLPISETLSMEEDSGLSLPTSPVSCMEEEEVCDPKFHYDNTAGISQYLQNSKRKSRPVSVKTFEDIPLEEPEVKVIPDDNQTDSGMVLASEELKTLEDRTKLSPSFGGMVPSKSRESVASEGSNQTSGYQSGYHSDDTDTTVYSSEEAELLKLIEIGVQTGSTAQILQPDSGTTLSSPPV
# ASSAY_METHOD_TEXT: In vitro kinase assay (HTScan VEGF Receptor 2 Kinase Assay Kit)
# Type: biochemical
# EXPERIMENTAL_SETUP: ATP 10 µM; read-out: Enzyme, IC50, µM VEGFR-2
# number only, unit µM dropped from output

Record CC(C)(C)OC(=O)N1CCc2c(sc3ncnc(Oc4ccc(NC(=O)C5(C(=O)Nc6ccc(F)cc6)CC5)cc4F)c23)C1 [Compound 13h] . Reported IC50: 0.25

Record COc1cc2ncnc(Oc3ccc(NC(=O)C4(C(=O)Nc5ccc(F)cc5)CC4)cc3F)c2cc1OC [Compound 13b] . Reported IC50: 0.1
